Known protein stability index of a selection of variants
B1: FBXO34 (parent)
chain: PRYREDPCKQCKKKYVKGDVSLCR

# Variants of: B1
# assay_overview: protein stability index of a GFP-peptide fusion (GPS, HEK-293T) (PSI 1-6); higher = more stable;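 also: lentivirally expressed fusions sorted by FACS into six bins by GFP to DsRed ratio, PSI derived from sequencing read proportions per bin multiplied by bin number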
# cond: c terminus: a fixed tail appended

| variant_identifier | protein stability index |
| --- | --- |
| P7D | 2.85 |
| K17H | 3.2 |
| C23H | 3.1 |
| C8G | 4.35 |
| D19L | 2.43 |
| D6P | 2.22 |
| Q10P | 3.13 |
| V16R | 3.4 |
| C11Y | 2.76 |
| K9M | 2.45 |
| C23P | 2.52 |
| C11H | 3.68 |
| Y15H | 4.01 |
| D6E | 3.14 |
| R4E | 3.3 |
| P1W | 1.78 |
| G18R | 3.31 |
| C11G | 3.91 |
| R2N | 2.85 |
| L22C | 3.15 |
| Y15S | 3.07 |
| P1C | 2.02 |
| C8D | 4.16 |
| K17Q | 2.23 |
| Y15V | 2.94 |
| K13A | 2.51 |
| C23E | 2.71 |
| D6M | 2.92 |
| V20D | 3.29 |
| R4L | 2.89 |
| Y3K | 2.63 |
| G18D | 2.86 |
| C11V | 3.11 |
| V16W | 2.31 |
| L22E | 3.48 |
| K17V | 2.69 |
| V16N | 2.52 |
| S21P | 2.53 |
| R24L | 2.52 |
| R4K | 2.79 |
| K12N | 2.39 |
| V20C | 3.68 |
| Q10G | 3.31 |
| C11P | 3.99 |
| C23W | 1.85 |
| K12G | 2.5 |
| Q10F | 1.77 |
| P1R | 2.96 |
| K14Y | 2.12 |
| D19K | 3.14 |
| K17G | 2.61 |
| E5M | 2.66 |
| C23D | 3.3 |
| R24C | 3.58 |
| P7M | 2.42 |
| D6I | 2.21 |
| V16A | 3.11 |
| D6R | 3.19 |
| C11D | 4.4 |
| C23T | 3.12 |
| P1A | 3.11 |
| V20E | 2.8 |
| Y15I | 2.95 |
| Y3G | 3.39 |
| K13T | 2.58 |
| D19G | 2.63 |
| V20A | 2.85 |
| K13M | 2.47 |
| K13D | 2.63 |
| L22W | 2.08 |
| R4H | 2.96 |
| K12M | 2.18 |
| L22G | 3.18 |
| Y15F | 2.73 |
| C23M | 2.95 |
| S21Q | 3.14 |
